TARGET_OR_TEST_SYSTEM: RAC-alpha serine/threonine-protein kinase (Homo sapiens, UniProt P31749, C296A)
TEST_DETAILS: Inhibition of AKT C296A mutant
METRIC_NAME: pIC50
Give only the number. pIC50 is defined as minus log10 of concentration in molar units.

Input line: Hi! What's the reported pIC50 for C[C@H]1O[C@@H]2CC(=O)O[C@@H]2C2=C1C(=O)c1c(ccc([C@H]3C[C@@H](N(C)C)[C@H](O)[C@@H](C)O3)c1O)C2=O on RAC-alpha serine/threonine-protein kinase (Homo sapiens, UniProt P31749, C296A)?
Output line: 4.52
